experimentalTarget: Voltage-gated inwardly rectifying potassium channel KCNH2 (Homo sapiens); further: assay procedure not described here
Sequence (Q12809 whole entry): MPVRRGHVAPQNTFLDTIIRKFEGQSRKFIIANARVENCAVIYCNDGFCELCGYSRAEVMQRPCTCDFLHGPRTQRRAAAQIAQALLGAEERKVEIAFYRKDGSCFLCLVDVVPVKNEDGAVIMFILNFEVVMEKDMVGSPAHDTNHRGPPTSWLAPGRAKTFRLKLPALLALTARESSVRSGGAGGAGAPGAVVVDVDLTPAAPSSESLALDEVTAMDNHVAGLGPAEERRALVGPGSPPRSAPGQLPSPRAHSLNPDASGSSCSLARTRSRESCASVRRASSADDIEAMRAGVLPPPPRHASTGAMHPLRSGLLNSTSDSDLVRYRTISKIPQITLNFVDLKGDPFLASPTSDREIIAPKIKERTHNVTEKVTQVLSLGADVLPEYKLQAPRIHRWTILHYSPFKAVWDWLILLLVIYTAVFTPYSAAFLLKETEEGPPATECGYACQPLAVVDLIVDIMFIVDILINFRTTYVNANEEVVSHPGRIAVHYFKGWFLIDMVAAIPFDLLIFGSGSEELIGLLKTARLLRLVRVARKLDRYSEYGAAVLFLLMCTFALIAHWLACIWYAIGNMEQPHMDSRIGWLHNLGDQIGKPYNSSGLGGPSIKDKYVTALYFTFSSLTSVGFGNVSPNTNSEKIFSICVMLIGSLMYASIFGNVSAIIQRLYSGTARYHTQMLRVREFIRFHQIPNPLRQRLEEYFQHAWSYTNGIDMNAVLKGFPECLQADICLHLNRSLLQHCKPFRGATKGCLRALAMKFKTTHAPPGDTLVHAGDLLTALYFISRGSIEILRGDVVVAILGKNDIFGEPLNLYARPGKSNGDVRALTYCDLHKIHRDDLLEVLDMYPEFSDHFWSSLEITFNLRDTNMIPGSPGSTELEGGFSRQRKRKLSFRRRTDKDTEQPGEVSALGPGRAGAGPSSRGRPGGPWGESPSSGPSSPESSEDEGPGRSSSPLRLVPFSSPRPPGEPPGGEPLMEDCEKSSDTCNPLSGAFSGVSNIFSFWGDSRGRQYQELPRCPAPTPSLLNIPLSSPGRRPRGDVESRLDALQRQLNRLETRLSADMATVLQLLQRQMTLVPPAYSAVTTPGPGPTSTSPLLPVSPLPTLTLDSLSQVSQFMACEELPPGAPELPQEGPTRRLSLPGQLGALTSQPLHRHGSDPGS
Format: functional
recordedMetric: AC50

[
  {
    "compound": "CCCn1cnc2c1c(=O)n(CCCCC(C)=O)c(=O)n2C [PROPENTOFYLLINE]",
    "experimentalTarget": "Voltage-gated inwardly rectifying potassium channel KCNH2 (Homo sapiens)",
    "AC50": "> 30 µM"
  },
  {
    "compound": "CCCN1CC(NS(=O)(=O)N(CC)CC)CC2Cc3c(O)cccc3CC21 (stereo not drawn) [QUINAGOLIDE]",
    "experimentalTarget": "Voltage-gated inwardly rectifying potassium channel KCNH2 (Homo sapiens)",
    "AC50": "6.5 µM"
  },
  {
    "compound": "CCCNC(=O)NS(=O)(=O)c1ccc(Cl)cc1 [CHLORPROPAMIDE]",
    "experimentalTarget": "Voltage-gated inwardly rectifying potassium channel KCNH2 (Homo sapiens)",
    "AC50": "> 30 µM"
  },
  {
    "compound": "Cc1ccc(C)c(OCCCC(C)(C)C(=O)O)c1 [GEMFIBROZIL]",
    "experimentalTarget": "Voltage-gated inwardly rectifying potassium channel KCNH2 (Homo sapiens)",
    "AC50": "> 30 µM"
  },
  {
    "compound": "C=N[C@@H](C(=O)N[C@@H]1C(=O)N2[C@@H]1SC(C)(C)[C@@H]2C(=O)O)c1ccccc1 [METAMPICILLIN]",
    "experimentalTarget": "Voltage-gated inwardly rectifying potassium channel KCNH2 (Homo sapiens)",
    "AC50": "> 30 µM"
  }
]

Form: Entry = C[Se]CC[C@H](N)C(=O)O [SELENOMETHIONINE] | System = Voltage-gated inwardly rectifying potassium channel KCNH2 (Homo sapiens) | AC50 = ____; further: assay procedure not described here
> 30 µM

Please provide the recorded AC50 for CC(C)(O/N=C(\C(=O)N[C@@H]1C(=O)N2C(C(=O)[O-])=C(C[n+]3ccccc3)CS[C@H]12)c1csc(N)n1)C(=O)O [CEFTAZIDIME] , tested on Voltage-gated inwardly rectifying potassium channel KCNH2 (Homo sapiens). Further: assay procedure not described here.
> 300 µM

Entry CN[C@@H](C)[C@@H](O)c1ccccc1 [PSEUDOEPHEDRINE] , system Voltage-gated inwardly rectifying potassium channel KCNH2 (Homo sapiens): what AC50 was measured?; further: assay procedure not described here
> 30 µM

Please provide the recorded AC50 for CC[C@H]1OC(=O)[C@H](C)[C@@H](O[C@H]2C[C@@](C)(OC)[C@@H](O)[C@H](C)O2)[C@H](C)[C@@H](O[C@@H]2O[C@H](C)C[C@H](N(C)C)[C@H]2O)[C@](C)(O)C[C@@H](C)[C@@H]2N[C@@H](COCCOC)O[C@H]([C@H]2C)[C@]1(C)O [DIRITHROMYCIN] , tested on Voltage-gated inwardly rectifying potassium channel KCNH2 (Homo sapiens). Further: assay procedure not described here.
> 30 µM

Short answer please: AC50, Voltage-gated inwardly rectifying potassium channel KCNH2 (Homo sapiens), entry Cc1oc(=O)oc1COC(=O)[C@@H]1N2C(=O)[C@@H](NC(=O)[C@H](N)c3ccccc3)[C@H]2SC1(C)C [LENAMPICILLIN]
> 30 µM

Voltage-gated inwardly rectifying potassium channel KCNH2 (Homo sapiens) / AC50 / COC(=O)C1=C(C)NC(C)=C(C(=O)OCCN2CCN(C(c3ccccc3)c3ccccc3)CC2)C1c1cccc([N+](=O)[O-])c1 (stereo not drawn) [MANIDIPINE 6300] : value?; further: assay procedure not described here
0.82 µM

Form entry - test system: Voltage-gated inwardly rectifying potassium channel KCNH2 (Homo sapiens); read-out: AC50; compound: O=C(O)P(=O)(O)O [FOSCARNET]; further: assay procedure not described here
> 30 µM

Lab note: need AC50 for C[C@H](CCC(=O)O)[C@H]1CC[C@H]2[C@@H]3[C@H](O)C[C@@H]4C[C@H](O)CC[C@]4(C)[C@H]3C[C@H](O)[C@]12C [CHOLIC ACID] on Voltage-gated inwardly rectifying potassium channel KCNH2 (Homo sapiens), anyone have it?
> 30 µM

Lab note: need AC50 for CC(CN1c2ccccc2Sc2ccccc21)N(C)C (stereo not drawn) [PROMETHAZINE] on Voltage-gated inwardly rectifying potassium channel KCNH2 (Homo sapiens), anyone have it?
0.922 µM
